# system.tested: B-Raf kinase (SEQ ID NO: 1) (Homo sapiens, UniProt P15056)
# Construct: GST (N); purchased Sigma
# Sequence (P15056 416-766): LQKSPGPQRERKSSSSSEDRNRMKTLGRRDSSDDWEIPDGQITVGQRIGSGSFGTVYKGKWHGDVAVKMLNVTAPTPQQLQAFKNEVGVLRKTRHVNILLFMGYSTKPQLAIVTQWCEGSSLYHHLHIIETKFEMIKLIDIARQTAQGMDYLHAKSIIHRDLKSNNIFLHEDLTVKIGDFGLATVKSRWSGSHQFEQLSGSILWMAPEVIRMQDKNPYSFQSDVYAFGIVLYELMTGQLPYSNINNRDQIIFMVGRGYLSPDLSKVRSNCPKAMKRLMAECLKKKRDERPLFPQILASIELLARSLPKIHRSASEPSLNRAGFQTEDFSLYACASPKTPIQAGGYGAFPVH
# experimental.details: Biochemical assay for B-Raf (coupled pyruvate kinase/lactate dehydrogenase)
# condition.details: 1 mM ATP; read-out: BRAF (inhibition of biochemical activity, IC50)
pIC50: −log10 of the molar value.
pIC50 reference

Consider the following illustrative entries.
• Cc1ccc(NC(=O)c2cc(C3CC3)cnn2)cc1-c1cc(N2CCOCC2)nc(N[C@H](C)CO)n1 = > 7.00
• Cc1ccc(NC(=O)c2cc(C(C)(F)F)cnn2)cc1-c1cc(N[C@H](C)CO)nc(N2CCOCC2)c1 = > 7.00
• Cc1ccc(NC(=O)c2cc(C(C)C)cnn2)cc1-c1ccnc(N2CCOCC2)c1 = 6.30 to 7.00
• Cc1ccc(NC(=O)c2cc(C3CCC3)cnn2)cc1-c1cc(N[C@H](C)CO)nc(N2CCOCC2)c1 = > 7.00
• C=C(C)c1cncc(C(=O)Nc2ccc(C)c(-c3cc(N[C@H](C)CO)nc(N4CCOCC4)c3)c2)n1 = > 7.00
• Cc1ccc(NC(=O)c2cc(C(F)(F)F)cnn2)cc1-c1cc(OCCO)nc(N2CCOCC2)c1 = > 7.00
• Cc1ccc(NC(=O)c2cc(C3CCC3)cnn2)cc1-c1cc(OCCO)nc(N2CCOCC2)c1 = > 7.00
• Cc1ccc(NC(=O)c2cc(C3CC3)cnn2)cc1-c1nc(N[C@H](C)CO)cc(N2CCOCC2)n1 = 5.00 to 6.00

For the next question, use this compound.
INPUT: Form field - read-out: pIC50; system: B-Raf kinase (SEQ ID NO: 1) (Homo sapiens, UniProt P15056); submitted item: Cc1ccc(NC(=O)c2cc(Br)cnn2)cc1-c1cc(N[C@H](C)CO)nc(N2CCOCC2)c1
OUTPUT: 6.30 to 7.00

---

# system.tested: B-Raf kinase (SEQ ID NO: 1) (Homo sapiens, UniProt P15056)
# Construct: GST (N); purchased Sigma
# experimental.details: Biochemical assay for B-Raf (coupled pyruvate kinase/lactate dehydrogenase)
# condition.details: 1 mM ATP; read-out: BRAF (inhibition of biochemical activity, IC50)
endpoint.name: IC50

Consider the following illustrative entries.
- Cc1ccc(NC(=O)c2cnc(Cl)nc2)cc1-c1cc(N[C@H](C)CO)nc(N2CCOCC2)c1 [Example 38]: 1000 to 10000 nM
- Cc1ccc(NC(=O)c2cncc(C3CC3)n2)cc1-c1cc(N[C@H](C)CO)nc(N2CCOCC2)c1 [Example 62]: 100 to 500 nM
- Cc1ccc(NC(=O)c2cc(C(F)(F)F)cnn2)cc1-c1ccnc(N2CC3CCC(C2)O3)c1 [Example 83]: < 100 nM
- Cc1ccc(NC(=O)c2cc(C(F)(F)F)cnn2)cc1-c1cc(N[C@H](C)CO)nc(N2C[C@H]3C[C@@H]2CO3)c1 [Example 93]: 100 to 500 nM
- Cc1ccc(NC(=O)c2cc(C(F)(F)F)cnn2)cc1-c1cccc(N2CCOCC2)c1 [Example 41]: 100 to 500 nM
- Cc1ccc(NC(=O)c2cc(C(C)(F)F)cnn2)cc1-c1cc(NCCO)nc(N2CCOCC2)c1 [Example 64]: < 100 nM
- Cc1cc(-c2cc(NC(=O)c3cc(C4CCC4)cnn3)ccc2C)cc(N2CCOCC2)n1 [Example 42]: < 100 nM
- Cc1cc(-c2cc(NC(=O)c3cc(C(F)(F)F)cnn3)ccc2C)cc(N2CCOCC2)n1 [Example 4]: < 100 nM
- Cc1ccc(NC(=O)c2cc(C3CC3)cnn2)cc1-c1cc(OCCO)nc(N2CCOCC2)c1 [Example 37]: < 100 nM
- Cc1ccc(NC(=O)c2cc(C3CC3)cnn2)cc1-c1ccnc(N2CCOCC2)c1 [Example 2]: 100 to 500 nM

INPUT: Form field - read-out: IC50; system: B-Raf kinase (SEQ ID NO: 1) (Homo sapiens, UniProt P15056); submitted item: Cc1ccc(NC(=O)c2cc(Cl)cnn2)cc1-c1cncc(N2CCOCC2)n1 [Example 65]
OUTPUT: 1000 to 10000 nM

INPUT: Form field - read-out: IC50; system: B-Raf kinase (SEQ ID NO: 1) (Homo sapiens, UniProt P15056); submitted item: Cc1ccc(NC(=O)c2cc(Cl)cnn2)cc1-c1cc(OCCO)nc(N2CCOCC2)c1 [Example 32]
OUTPUT: 500 to 1000 nM

INPUT: Form field - read-out: IC50; system: B-Raf kinase (SEQ ID NO: 1) (Homo sapiens, UniProt P15056); submitted item: Cc1ccc(NC(=O)c2cc(C(F)(F)F)cnn2)cc1-c1cc(OCCO)nc(N2CCOCC2)n1 [Example 30]
OUTPUT: 500 to 1000 nM

INPUT: Form field - read-out: IC50; system: B-Raf kinase (SEQ ID NO: 1) (Homo sapiens, UniProt P15056); submitted item: CNc1cc(N2C[C@H]3C[C@@H]2CO3)nc(-c2cc(NC(=O)c3cc(C(F)(F)F)cnn3)ccc2C)n1 [Example 91]
OUTPUT: 1000 to 10000 nM
